- Assay overview: LDH cell viability assay, normal prostate epithelial cells
- Assay type: cell-based, human
- Assay context: human, PNT2 normal prostate epithelial cells; PNT2, 30 µg/mL, 24 h; read-out: Cell Viability (%) ± SD
Property: viability at 24 h, 30 µg/mL

If you can, please state the reported viability at 24 h, 30 µg/mL value of C=C1C(=O)O[C@H]2[C@H]1[C@@H](O)[C@H](OC(=O)CC(C)C)[C@H](C)CCC(=O)[C@](C)(O)[C@@H]2OC(=O)C(C)C .
21.4%

* * *

- Assay overview: LDH cell viability assay, normal prostate epithelial cells
- Format: cell-based, human
- Assay context: human, PNT2 normal prostate epithelial cells; PNT2, 5 µg/mL, 24 h; read-out: Cell Viability (%) ± SD
Property: viability at 24 h, 5 µg/mL (%)
State just the number; it will be interpreted in %.

If you can, please state the reported viability at 24 h, 5 µg/mL value of C=C1C(=O)O[C@H]2[C@H]1[C@@H](O)[C@H](OC(=O)CC(C)C)[C@H](C)CCC(=O)[C@](C)(O)[C@@H]2OC(=O)C(C)C .
69.4
